assayInfo: Moisture % K.F. of the stability samples
Assay type: physicochemical
cond: sample used in the stability test
Exam item: assign label 1 to entries whose Moisture % K.F. is below 0.5% and label 0 to entries at or above 0.5%. Note that a value of exactly 0.5% receives label 0.

1. C[S+](CCC(N)C(=O)[O-])C[C@H]1O[C@@H](n2cnc3c(N)ncnc32)[C@H](O)[C@@H]1O.C[S+](CCC(N)C(=O)[O-])C[C@H]1O[C@@H](n2cnc3c(N)ncnc32)[C@H](O)[C@@H]1O.Cl.O=S(=O)([O-])[O-].[Mg+2] (some centres unmarked) [SAMe•0.5HCl•0.5MgSO4] :: label 0
2. C[S+](CCC(N)C(=O)[O-])C[C@H]1O[C@@H](n2cnc3c(N)ncnc32)[C@H](O)[C@@H]1O.O=S(=O)(O)O.O=S(=O)(O)O.[Cl-].[Cl-].[Mg+2] (some centres unmarked) :: label 0
3. C[S+](CCC(N)C(=O)[O-])C[C@H]1O[C@@H](n2cnc3c(N)ncnc32)[C@H](O)[C@@H]1O.C[S+](CCC(N)C(=O)[O-])C[C@H]1O[C@@H](n2cnc3c(N)ncnc32)[C@H](O)[C@@H]1O.Cl.[Cl-].[Cl-].[Mg+2] (some centres unmarked) [SAMe•0.5HCl•0.5MgCl2] :: label 0
4. C[S+](CCC(N)C(=O)[O-])C[C@H]1O[C@@H](n2cnc3c(N)ncnc32)[C@H](O)[C@@H]1O.Cl.Cl.[Cl-].[Cl-].[Mg+2] (some centres unmarked) [SAMe•2.0HCl•1.0MgCl2] :: label 1
5. C[S+](CCC(N)C(=O)[O-])C[C@H]1O[C@@H](n2cnc3c(N)ncnc32)[C@H](O)[C@@H]1O.C[S+](CCC(N)C(=O)[O-])C[C@H]1O[C@@H](n2cnc3c(N)ncnc32)[C@H](O)[C@@H]1O.O=S(=O)(O)O.[Ca+2].[Cl-].[Cl-] (some centres unmarked) :: label 1
6. C[S+](CCC(N)C(=O)[O-])C[C@H]1O[C@@H](n2cnc3c(N)ncnc32)[C@H](O)[C@@H]1O.C[S+](CCC(N)C(=O)[O-])C[C@H]1O[C@@H](n2cnc3c(N)ncnc32)[C@H](O)[C@@H]1O.O=S(=O)(O)O.O=S(=O)([O-])[O-].[Mg+2] (some centres unmarked) :: label 0
7. C[S+](CCC(N)C(=O)[O-])C[C@H]1O[C@@H](n2cnc3c(N)ncnc32)[C@H](O)[C@@H]1O.O=S(=O)(O)O.O=S(=O)(O)O.O=S(=O)([O-])[O-].[Mg+2] (some centres unmarked) :: label 1
8. C[S+](CCC(N)C(=O)[O-])C[C@H]1O[C@@H](n2cnc3c(N)ncnc32)[C@H](O)[C@@H]1O.Cl.Cl.O=S(=O)([O-])[O-].[Mg+2] (some centres unmarked) [SAMe•2.0HCl•1.0MgSO4] :: label 0
